Organism: Homo sapiens
Experiment: The compound was tested for inhibition of Cholesterol synthesis from [14C]- Acetate in human skin fibroblasts
Type: functional
Settings: read-out: I50
property measured: pIC50
Lab note — pIC50 values are minus log10 of concentrations in M.

Q. # input molecule: CC[C@H](C)C(=O)O[C@@H]1C[C@@H](C)C=C2C=C[C@H](C)[C@H](CC[C@@H](O)C[C@H](O)CC(=O)[O-])C21.[Na+] (stereo partly specified) ; wanted: its pIC50
A. 7.73

###

Target: 3-hydroxy-3-methylglutaryl-coenzyme A reductase (Rattus norvegicus, UniProt P51639)
Sequence (P51639 whole entry): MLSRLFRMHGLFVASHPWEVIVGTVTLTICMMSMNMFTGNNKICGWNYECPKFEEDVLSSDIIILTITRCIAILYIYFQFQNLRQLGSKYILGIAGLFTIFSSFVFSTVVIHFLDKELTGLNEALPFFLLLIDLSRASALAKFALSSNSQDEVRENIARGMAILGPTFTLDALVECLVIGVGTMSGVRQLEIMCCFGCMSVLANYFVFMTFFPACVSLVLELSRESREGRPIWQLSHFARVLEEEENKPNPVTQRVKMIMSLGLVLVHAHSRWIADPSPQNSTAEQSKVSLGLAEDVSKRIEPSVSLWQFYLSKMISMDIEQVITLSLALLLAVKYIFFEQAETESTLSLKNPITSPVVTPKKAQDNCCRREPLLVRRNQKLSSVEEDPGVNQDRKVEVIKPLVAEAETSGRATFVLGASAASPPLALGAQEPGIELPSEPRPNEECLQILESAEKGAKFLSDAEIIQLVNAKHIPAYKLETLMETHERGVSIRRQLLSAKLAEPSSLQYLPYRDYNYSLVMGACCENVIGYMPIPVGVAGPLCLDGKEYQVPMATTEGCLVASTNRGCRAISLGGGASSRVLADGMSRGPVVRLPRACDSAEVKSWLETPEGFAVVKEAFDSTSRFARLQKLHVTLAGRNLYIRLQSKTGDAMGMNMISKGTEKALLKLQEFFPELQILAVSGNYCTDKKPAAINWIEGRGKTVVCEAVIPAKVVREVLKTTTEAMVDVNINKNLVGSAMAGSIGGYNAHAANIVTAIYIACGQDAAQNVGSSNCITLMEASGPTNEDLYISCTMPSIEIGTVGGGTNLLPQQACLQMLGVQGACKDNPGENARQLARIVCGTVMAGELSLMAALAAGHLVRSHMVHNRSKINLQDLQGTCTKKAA
Assay: In vitro for inhibition of rat HMG-CoA reductase.
Conditions: read-out: I50
property measured: IC50 (nM)
Enter your answer as a number in nM; do not include the unit.

Use these answered entries as a reference point.
Q. Tell me reported IC50 for `Cc1c(-c2ccccc2)nc(C2CC2)c(/C=C/P(=O)(O)C[C@H](O)CC(=O)O)c1-c1ccc(F)cc1` , tested with 3-hydroxy-3-methylglutaryl-coenzyme A reductase (Rattus norvegicus, UniProt P51639).
A. 2.5

Q. Same again, this time with `CC(C)(C)c1nc(-c2ccccc2)cc(-c2ccc(F)cc2)c1C#CP(=O)(O)C[C@H](O)CC(=O)O`
A. 68.4

Further cases:
Q. Report IC50 for `CCc1c(-c2ccccc2)nc(C(C)C)c(CCP(=O)(O)C[C@H](O)CC(=O)O)c1-c1ccc(F)cc1` tested on 3-hydroxy-3-methylglutaryl-coenzyme A reductase (Rattus norvegicus, UniProt P51639).
A. 19.1

Q. Please give the result for `CC(C)c1nc(-c2cc(F)c(F)c(F)c2F)cc(-c2ccc(F)cc2)c1C#CP(=O)(O)C[C@H](O)CC(=O)O` too.
A. 8.9

###

A collection of molecules and their measured IC50
Target: 3-hydroxy-3-methylglutaryl-coenzyme A reductase (Rattus norvegicus, UniProt P51639)
Experiment: In vitro for inhibition of rat HMG-CoA reductase.
Conditions: read-out: I50
Write down the numeric answer in nM and omit the unit.

Illustrative cases are given below, each with its answer.
Q. Reported IC50 for 3-hydroxy-3-methylglutaryl-coenzyme A reductase (Rattus norvegicus, UniProt P51639), given `CC(C)c1cc(-c2ccccc2)nc(-c2ccc(F)cc2)c1/C=C/P(=O)(O)C[C@H](O)CC(=O)O` ?
A. 45.3

Q. Proceed to `Cc1c(-c2ccccc2)nc(C2CC2)c(CCP(=O)(O)C[C@H](O)CC(=O)O)c1-c1ccc(F)cc1`
A. 9.2

Q. Then `Cc1nc(-c2ccccc2)c(C)c(-c2ccc(F)cc2)c1C#CP(=O)(O)C[C@H](O)CC(=O)O` ?
A. 1300

Q. Please answer likewise for `Cc1c(-c2ccccc2)nc(C(C)C)c(C#CP(=O)([O-])C[C@H](O)CC(=O)[O-])c1-c1ccc(F)cc1.[Li+].[Li+]`
A. 4.5

---
Q. Form field - read-out: IC50; system: 3-hydroxy-3-methylglutaryl-coenzyme A reductase (Rattus norvegicus, UniProt P51639); submitted item: `CC(C)c1nc(-c2ccccc2Cc2ccccc2)cc(-c2ccc(F)cc2)c1C#CP(=O)(O)C[C@H](O)CC(=O)O`
A. 62.6

Q. Param item: `CC(C)c1nc(C2CCCCC2)cc(-c2ccc(F)cc2)c1C#CP(=O)(O)C[C@H](O)CC(=O)O`
A. 48.4

Q. Now consider `CC(C)c1nc(-c2cccc3ccccc23)cc(-c2ccc(F)cc2)c1C#CP(=O)(O)C[C@H](O)CC(=O)O` .
A. 28.7

Q. How about `Cc1nc(-c2ccccc2)c(C)c(-c2ccc(F)cc2)c1CCP(=O)(O)C[C@H](O)CC(=O)O` ?
A. 235

These data points were gathered from ChEMBL document CHEMBL1125205.
